- Target Or Test System: T1, human B7-H7 recombinant protein (human, UniProt Q9UM44 23-344)
- T1 construct: also called human B7-H7 protein
- T1 sequence (looked up): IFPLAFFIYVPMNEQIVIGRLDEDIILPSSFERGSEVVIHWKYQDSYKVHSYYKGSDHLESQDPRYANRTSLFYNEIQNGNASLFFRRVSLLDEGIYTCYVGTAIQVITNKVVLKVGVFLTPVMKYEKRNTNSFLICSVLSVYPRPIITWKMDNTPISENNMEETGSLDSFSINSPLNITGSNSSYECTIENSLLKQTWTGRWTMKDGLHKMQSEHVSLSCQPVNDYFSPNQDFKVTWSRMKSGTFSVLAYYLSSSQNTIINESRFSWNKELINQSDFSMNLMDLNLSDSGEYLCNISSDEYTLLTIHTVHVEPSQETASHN
- Test Method Notes: BLI (Octet), antibody captured on AHC sensor, human B7-H7 in solution, 1:1 global fit
Please provide measured koff for the entries that follow.

Q) I have this binder here, PR003252 (antibody, human IgG1, kappa, V domains shown, Human IgG1; also called 53C12D4) VH: QVQLVESGGGVVQPGRSLRLSCAASGFTFSNYAMHWVRQVPGKGLEWVALIWYDGSEKYYADSVKGRFTISRDDSKNTLFLQMSSLRAEDTAVYSCVREYSSGWGYFDYWGQGTQVTVSS VL: DIQMTQSPSTLSASVGDRVTITCRASQSISSWLAWYQQKPGKAPKLLIYKASSLKSGVPSRFSGSGSGTEFTLTISSLQPDDFATYYCLQYNSYYTFGQGTKLEIKR , and I need its recorded koff.
A) 0.000132 s⁻¹

Q) I have this binder here, PR003265 (antibody, human IgG1, kappa, V domains shown, Human IgG1; also called 78G8B3) VH: QVQLVESGGGVVQPGRSLRLSCAASGFTFSTYGLHWVRQAPGKGLEWVAVIWYDESNEYYADSVKGRFTISRDNSKNTLYLQMNSLRAEDTALYYCARLAHDYGGTYFDYWGQGTLVTVSS VL: EIVMTQSPAILSVSPGERATLSCRASQSISYNLAWYQQKPGQAPRLLIYGASIRATGIPARFSGSGSGTDFTLTISSLQSEDFAVYYCQQYNNWPPWTFGQGTKVEIKR , and I need its recorded koff.
A) 2.93e-05 s⁻¹

Q) I have this binder here, PR003260 (antibody, human IgG1, kappa, V domains shown, Human IgG1; also called 70F3B1) VH: QVQLVESGGGVVQPGRSLRLPCAASGFTFSRYGMHWVRQAPGKGLEWVADIWYDGSKKYYADSVKGRFTISRDNSKNTLYLQMNSLRAEDTAVYFCTRDGGYSYGPFDYWGQGTLVTVSS VL: EIVMTQSPATLSVSPGERATLSCRASQSVSSNLAWYQQKPGQAPRLLIYYASTRAPGIPARFSGSESGTEFTLTISSLQSEDFAVYYCQQYNIWPYTFGQGTKLEIKR , and I need its recorded koff.
A) 0.000102 s⁻¹

Q) I have this binder here, PR003262 (antibody, human IgG1, kappa, V domains shown, Human IgG1; also called 77D5A4) VH: QVQLVESGGGVVQPGRSLRLSCAASGFTFSRYGIHWVRQAPGKGLEWVAVIWYNGRNKYYVDSVKGRFTISRDNSKNTLYLQMNSLRAEDTAVYYCARDGGYSYGPFDYWGQGTLVTVSS VL: EIVMTQSPATLSVSPGERATLSCRASQSFSNNLAWYQQKPGQAPRLLIYGASTRATGIPARFSGSGSGTEFTLTISSLQSEDFAVYYCHQYNIWPLTFGGGTKVEIKR , and I need its recorded koff.
A) 0.000117 s⁻¹

Q) I have this binder here, PR003263 (antibody, human IgG1, kappa, V domains shown, Human IgG1; also called 77E6C4) VH: QVQLVESGGGVVQPGRSLRLSCAASGFTFSYYGLNWVRQAPGKGLEWVAVIWFDGTNKYYADSVKGRFTISRDDSKNTLYLQMNSLRAEDTAVYYCARGYGSGSYYNYVMDAWGQGASVTVSS VL: EIVMTQSPATLSVSPGERATLSCRASQSVSSNLAWYQQKPGQAPRLLIYGASTGATGIPARFSGSGSGTDFTLTISSLQSEDFAVYYCQQYYKWPLTFGGGTKVEIKR , and I need its recorded koff.
A) 0.000441 s⁻¹

# credit: patent US20250136696A1
